system: NCI-H322M multicellular tumor spheroids, viability (% test/control); assay: Anticancer human tumor NCI-H322M cell line growth inhibition; details: second compound 0.000949 µM; first compound 0.3 µM; hits give low values
measurement kind: viability, T/C (%)
Your answer is read as %, so omit the unit and give the number.

# get_value(readout='viability, T/C', item= CNCc1ccc(-c2cc(-c3nc(-c4ccc(S(=O)(=O)C(C)C)cc4)cnc3N)on2)cc1 + COc1cc2c(cc1O)CCNC21CSC2c3c(OC(C)=O)c(C)c4c(c3C(COC1=O)N1C(O)C3Cc5cc(C)c(OC)c(O)c5C(C21)N3C)OCO4 )
51.9

# get_value(readout='viability, T/C', item= O=C(c1cc(Cc2n[nH]c(=O)c3ccccc23)ccc1F)N1CCN(C(=O)C2CC2)CC1 + COc1cc2c(cc1O)CCNC21CSC2c3c(OC(C)=O)c(C)c4c(c3C(COC1=O)N1C(O)C3Cc5cc(C)c(OC)c(O)c5C(C21)N3C)OCO4 )
77.7

# get_value(readout='viability, T/C', item= Cn1ncnc1[C@H]1c2n[nH]c(=O)c3cc(F)cc(c23)N[C@@H]1c1ccc(F)cc1 + COc1cc2c(cc1O)CCNC21CSC2c3c(OC(C)=O)c(C)c4c(c3C(COC1=O)N1C(O)C3Cc5cc(C)c(OC)c(O)c5C(C21)N3C)OCO4 )
64.4

# get_value(readout='viability, T/C', item= Cc1sc2c(c1C)C(c1ccc(Cl)cc1)=NC(CC(=O)Nc1ccc(O)cc1)c1nnc(C)n1-2 (centres undefined) + COc1cc2c(cc1O)CCNC21CSC2c3c(OC(C)=O)c(C)c4c(c3C(COC1=O)N1C(O)C3Cc5cc(C)c(OC)c(O)c5C(C21)N3C)OCO4 )
60.2

====

test system: NCI-H322M multicellular tumor spheroids, viability (% test/control); assay: Anticancer human tumor NCI-H322M cell line growth inhibition; details: second compound 0.003 µM; first compound 0.1 µM; hits give low values
measurement kind: viability, T/C (%)
Your answer is read as %, so omit the unit and give the number.

Example results:
[2H]c1nc(C)nc([2H])c1-c1cc(NC[C@@H](C)c2cccc3c(C(=O)NC)ccnc23)ncn1 + CC[C@@]1(O)C(=O)OCc2c1cc1n(c2=O)Cc2cc3c(CN(C)C)c(O)ccc3nc2-1
128
Cc1cc(C)c(CNC(=O)c2cc(-c3ccc(CN4CCOCC4)cc3)cc3c2cnn3C2CCCC2)c(=O)[nH]1 + CC[C@@]1(O)C(=O)OCc2c1cc1n(c2=O)Cc2cc3c(CN(C)C)c(O)ccc3nc2-1
82.3
CC(C)n1c(=O)n(C)c2cnc3cc(F)c(-c4ccc(OCCCN5CCCCC5)nc4)cc3c21 + CC[C@@]1(O)C(=O)OCc2c1cc1n(c2=O)Cc2cc3c(CN(C)C)c(O)ccc3nc2-1
81.4
CC1COCCN1c1cc(-c2ccnn2C)c2ccnc(-c3ccn[nH]3)c2n1 (stereo not given) + CC[C@@]1(O)C(=O)OCc2c1cc1n(c2=O)Cc2cc3c(CN(C)C)c(O)ccc3nc2-1
40.6

Next:
# get_value(readout='viability, T/C', item= CC1COCCN1c1cc(-c2ccnn2C)c2ccnc(-c3ccn[nH]3)c2n1 (stereo not given) + COc1cc2c(cc1O)CCNC21CSC2c3c(OC(C)=O)c(C)c4c(c3C(COC1=O)N1C(O)C3Cc5cc(C)c(OC)c(O)c5C(C21)N3C)OCO4 )
3.16

====

tested on: NCI-H322M multicellular tumor spheroids, viability (% test/control); assay: Anticancer human tumor NCI-H322M cell line growth inhibition; settings: second compound 0.03 µM; first compound 0.0316 µM; hits give low values;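 also: spheroids exposed to compound for seven days before readout; 100% = DMSO vehicle control wells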
Listing of recorded viability, T/C by entry.
Your answer is read as %, so omit the unit and give the number.

Example results:
CC1COCCN1c1cc(-c2ccnn2C)c2ccnc(-c3ccn[nH]3)c2n1 (stereo not drawn) + CC[C@@]1(O)C(=O)OCc2c1cc1n(c2=O)Cc2cc3c(CN(C)C)c(O)ccc3nc2-1
43.8
COc1cc(C)[nH]c(=O)c1CN1CCc2c(Cl)cc(C(OC)C3COC3)c(Cl)c2C1=O (stereo not drawn) + CC[C@@]1(O)C(=O)OCc2c1cc1n(c2=O)Cc2cc3c(CN(C)C)c(O)ccc3nc2-1
69

# get_value(readout='viability, T/C', item= COc1ccc([C@@H](O)c2cc(-c3ncnc4cc(N5CCOCC5)ccc34)c(F)cc2Cl)nn1 + CC[C@@]1(O)C(=O)OCc2c1cc1n(c2=O)Cc2cc3c(CN(C)C)c(O)ccc3nc2-1 )
72.5

====

tested on: NCI-H322M multicellular tumor spheroids, viability (% test/control); assay: Anticancer human tumor NCI-H322M cell line growth inhibition; conditions: second compound 0.003 µM; first compound 0.1 µM; active = viability on the fitted dose curve at most 10% of control; inactive = the rest;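 also: spheroids exposed to compound for seven days before readout; 100% = DMSO vehicle control wells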
Write down one outcome, taken from t (active), f (inactive)

COc1cc(C)[nH]c(=O)c1CN1CCc2c(Cl)cc(C(OC)C3COC3)c(Cl)c2C1=O (configuration not stated) + CC[C@@]1(O)C(=O)OCc2c1cc1n(c2=O)Cc2cc3c(CN(C)C)c(O)ccc3nc2-1
f
COc1cc(C)[nH]c(=O)c1CN1CCc2c(Cl)cc(C(OC)C3COC3)c(Cl)c2C1=O (configuration not stated) + COc1cc2c(cc1O)CCNC21CSC2c3c(OC(C)=O)c(C)c4c(c3C(COC1=O)N1C(O)C3Cc5cc(C)c(OC)c(O)c5C(C21)N3C)OCO4
t
[2H]c1nc(C)nc([2H])c1-c1cc(NC[C@@H](C)c2cccc3c(C(=O)NC)ccnc23)ncn1 + COc1cc2c(cc1O)CCNC21CSC2c3c(OC(C)=O)c(C)c4c(c3C(COC1=O)N1C(O)C3Cc5cc(C)c(OC)c(O)c5C(C21)N3C)OCO4
f
COc1ccc([C@@H](O)c2cc(-c3ncnc4cc(N5CCOCC5)ccc34)c(F)cc2Cl)nn1 + CC[C@@]1(O)C(=O)OCc2c1cc1n(c2=O)Cc2cc3c(CN(C)C)c(O)ccc3nc2-1
f

So what was the verdict on CC(C)n1c(=O)n(C)c2cnc3cc(F)c(-c4ccc(OCCCN5CCCCC5)nc4)cc3c21 + COc1cc2c(cc1O)CCNC21CSC2c3c(OC(C)=O)c(C)c4c(c3C(COC1=O)N1C(O)C3Cc5cc(C)c(OC)c(O)c5C(C21)N3C)OCO4 in this test?
t

So what was the verdict on COc1ccc([C@@H](O)c2cc(-c3ncnc4cc(N5CCOCC5)ccc34)c(F)cc2Cl)nn1 + COc1cc2c(cc1O)CCNC21CSC2c3c(OC(C)=O)c(C)c4c(c3C(COC1=O)N1C(O)C3Cc5cc(C)c(OC)c(O)c5C(C21)N3C)OCO4 in this test?
t

So what was the verdict on Cc1cc(C)c(CNC(=O)c2cc(-c3ccc(CN4CCOCC4)cc3)cc3c2cnn3C2CCCC2)c(=O)[nH]1 + COc1cc2c(cc1O)CCNC21CSC2c3c(OC(C)=O)c(C)c4c(c3C(COC1=O)N1C(O)C3Cc5cc(C)c(OC)c(O)c5C(C21)N3C)OCO4 in this test?
f

====

system: NCI-H322M multicellular tumor spheroids, viability (% test/control); assay: Anticancer human tumor NCI-H322M cell line growth inhibition; conditions: second compound 31.6 µM; first compound 0.316 µM; hits give low values;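 also: spheroids exposed to compound for seven days before readout; 100% = DMSO vehicle control wells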
Listing of recorded viability, T/C by entry.
Your answer is read as %, so omit the unit and give the number.

Example results:
[2H]c1nc(C)nc([2H])c1-c1cc(NC[C@@H](C)c2cccc3c(C(=O)NC)ccnc23)ncn1 + Cn1nnc2c(C(N)=O)ncn2c1=O
89.9
CC1COCCN1c1cc(-c2ccnn2C)c2ccnc(-c3ccn[nH]3)c2n1 (stereo unspecified) + Cn1nnc2c(C(N)=O)ncn2c1=O
37.1
COc1ccc([C@@H](O)c2cc(-c3ncnc4cc(N5CCOCC5)ccc34)c(F)cc2Cl)nn1 + Cn1nnc2c(C(N)=O)ncn2c1=O
65.7
COc1cc(C)[nH]c(=O)c1CN1CCc2c(Cl)cc(C(OC)C3COC3)c(Cl)c2C1=O (stereo unspecified) + Cn1nnc2c(C(N)=O)ncn2c1=O
102
CC(C)n1c(=O)n(C)c2cnc3cc(F)c(-c4ccc(OCCCN5CCCCC5)nc4)cc3c21 + Cn1nnc2c(C(N)=O)ncn2c1=O
81.9

Next:
# get_value(readout='viability, T/C', item= Cc1cc(C)c(CNC(=O)c2cc(-c3ccc(CN4CCOCC4)cc3)cc3c2cnn3C2CCCC2)c(=O)[nH]1 + Cn1nnc2c(C(N)=O)ncn2c1=O )
103

====

Listing of recorded viability, T/C by entry.
system: NCI-H322M multicellular tumor spheroids, viability (% test/control); assay: Anticancer human tumor NCI-H322M cell line growth inhibition; details: second compound 3.16 µM; first compound 0.0949 µM; hits give low values;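 also: spheroids exposed to compound for seven days before readout; 100% = DMSO vehicle control wells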
Your answer is read as %, so omit the unit and give the number.

Example results:
Cn1ncnc1[C@H]1c2n[nH]c(=O)c3cc(F)cc(c23)N[C@@H]1c1ccc(F)cc1 + Cn1nnc2c(C(N)=O)ncn2c1=O
84.3
O=C(c1cc(Cc2n[nH]c(=O)c3ccccc23)ccc1F)N1CCN(C(=O)C2CC2)CC1 + Cn1nnc2c(C(N)=O)ncn2c1=O
86.1
CNCc1ccc(-c2cc(-c3nc(-c4ccc(S(=O)(=O)C(C)C)cc4)cnc3N)on2)cc1 + Cn1nnc2c(C(N)=O)ncn2c1=O
75

Give viability, T/C (NCI-H322M multicellular tumor spheroids, viability (% test/control)) of the following compound: Cc1sc2c(c1C)C(c1ccc(Cl)cc1)=NC(CC(=O)Nc1ccc(O)cc1)c1nnc(C)n1-2 (centres undefined) + Cn1nnc2c(C(N)=O)ncn2c1=O
120
